biological target: recombinant human LRRK2 (catalytic domain only [amino acids 970-2527], GST-tagged) (Homo sapiens (Human)); test: LRRK2 Enzymatic Assay; details: LRRKtide substrate, [32P]-ATP
Sequence (Q5S007 970-2527): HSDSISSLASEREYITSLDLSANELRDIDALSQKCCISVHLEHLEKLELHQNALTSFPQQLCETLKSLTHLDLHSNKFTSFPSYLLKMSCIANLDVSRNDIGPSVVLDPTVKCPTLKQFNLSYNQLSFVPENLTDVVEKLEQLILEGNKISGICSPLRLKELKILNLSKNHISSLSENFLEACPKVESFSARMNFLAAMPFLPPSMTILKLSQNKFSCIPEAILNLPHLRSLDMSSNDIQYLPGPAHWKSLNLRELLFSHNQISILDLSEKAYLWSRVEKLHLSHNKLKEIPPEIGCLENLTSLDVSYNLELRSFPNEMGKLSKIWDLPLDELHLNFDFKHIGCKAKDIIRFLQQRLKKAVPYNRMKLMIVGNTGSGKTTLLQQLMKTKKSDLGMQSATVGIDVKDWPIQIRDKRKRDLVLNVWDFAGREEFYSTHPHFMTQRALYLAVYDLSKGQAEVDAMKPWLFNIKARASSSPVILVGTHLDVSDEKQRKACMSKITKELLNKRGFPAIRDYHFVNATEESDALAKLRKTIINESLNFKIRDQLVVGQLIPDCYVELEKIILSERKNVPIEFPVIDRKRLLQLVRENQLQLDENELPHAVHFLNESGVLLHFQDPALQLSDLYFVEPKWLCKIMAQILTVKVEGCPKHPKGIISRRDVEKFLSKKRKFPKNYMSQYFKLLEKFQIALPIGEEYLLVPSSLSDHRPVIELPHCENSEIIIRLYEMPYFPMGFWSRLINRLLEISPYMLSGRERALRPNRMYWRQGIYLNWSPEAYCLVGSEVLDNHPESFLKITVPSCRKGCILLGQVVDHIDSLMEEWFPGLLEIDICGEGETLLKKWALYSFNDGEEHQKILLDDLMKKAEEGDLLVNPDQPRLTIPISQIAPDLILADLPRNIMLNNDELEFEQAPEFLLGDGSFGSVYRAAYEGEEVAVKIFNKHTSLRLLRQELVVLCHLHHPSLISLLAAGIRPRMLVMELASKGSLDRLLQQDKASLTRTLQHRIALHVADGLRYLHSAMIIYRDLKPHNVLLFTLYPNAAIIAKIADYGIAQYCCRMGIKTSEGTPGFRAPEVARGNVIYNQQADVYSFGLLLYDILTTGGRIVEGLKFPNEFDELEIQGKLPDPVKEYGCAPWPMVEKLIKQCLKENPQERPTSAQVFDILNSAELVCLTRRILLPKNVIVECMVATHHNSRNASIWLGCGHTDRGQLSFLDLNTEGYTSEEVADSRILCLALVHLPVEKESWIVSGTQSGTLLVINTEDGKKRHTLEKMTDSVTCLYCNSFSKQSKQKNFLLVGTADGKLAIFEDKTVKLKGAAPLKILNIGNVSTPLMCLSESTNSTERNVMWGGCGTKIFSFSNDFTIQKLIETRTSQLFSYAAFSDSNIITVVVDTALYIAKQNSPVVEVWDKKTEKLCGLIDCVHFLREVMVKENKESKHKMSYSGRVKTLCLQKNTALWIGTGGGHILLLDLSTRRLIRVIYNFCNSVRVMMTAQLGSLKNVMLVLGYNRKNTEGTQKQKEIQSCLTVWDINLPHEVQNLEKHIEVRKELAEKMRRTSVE
pIC50: −log10 of the molar value.
measuredMetric: pIC50

Previously resolved entries follow.
molecule=CC(=O)N[C@H]1CC[C@H](COc2nc(Nc3ccc(N4C[C@@H](C)O[C@@H](C)C4)cc3)ncc2F)CC1 measuredmetric=pIC50 observed="> 7.30"
molecule=FC(F)CN1CCC(COc2nc(Nc3ccc(N4CCOCC4)cc3)ncc2Cl)CC1 measuredmetric=pIC50 observed="> 7.30"
molecule=CN[C@H]1CC[C@H](COc2nc(Nc3cn(C(C)(C)C#N)nc3C)ncc2F)CC1 measuredmetric=pIC50 observed="> 7.30"
molecule=Cc1nn(C(C)(C)C#N)cc1Nc1ncc(Cl)c(OCC2(F)CCNCC2)n1 measuredmetric=pIC50 observed="> 7.30"

Incoming: Which pIC50 is listed for CC(C)n1cc(Nc2ncc(F)c(OC[C@H]3CC[C@H](O)CC3)n2)cn1 ?
Outgoing: 6.70 to 7.30

Incoming: Which pIC50 is listed for CC(C)OC1CCC(COc2nc(Nc3ccc(N4C[C@@H](C)O[C@@H](C)C4)cc3)ncc2F)CC1 (mixture of isomers) ?
Outgoing: 6.40 to 6.70

Incoming: Which pIC50 is listed for C[C@@H]1CN(c2ccc(Nc3ncc(F)c(OCC4CCC(F)(F)C4)n3)cc2)C[C@H](C)O1 (some centres unmarked) ?
Outgoing: 6.70 to 7.30

Incoming: Which pIC50 is listed for CC(=O)N[C@H]1C[C@H](COc2nc(Nc3ccc(N4CCOCC4)cc3)ncc2F)C1 ?
Outgoing: 6.40 to 6.70

Cited source: patent US11578061B2
